assayed.target: T1, Human ST2-his (human, UniProt Q01638 19-328)
T1 construct: Expressed in CHO-K1; also called human ST2 fused with a 6-histidine tag at the C-terminus
T1 sequence: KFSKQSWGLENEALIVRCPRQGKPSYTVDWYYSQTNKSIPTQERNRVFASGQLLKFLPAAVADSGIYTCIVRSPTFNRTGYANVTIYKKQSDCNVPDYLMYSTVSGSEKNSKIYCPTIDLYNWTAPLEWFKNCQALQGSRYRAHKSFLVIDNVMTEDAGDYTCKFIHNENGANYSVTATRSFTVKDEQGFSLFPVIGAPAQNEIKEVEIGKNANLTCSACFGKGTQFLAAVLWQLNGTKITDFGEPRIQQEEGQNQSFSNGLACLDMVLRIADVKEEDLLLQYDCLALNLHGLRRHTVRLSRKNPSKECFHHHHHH
procedure.text: ELISA, coated human ST2-his
quantity.name: EC50 (µg/mL)
All answers are understood in µg/mL, so give the number only.

Record excerpt, results attached:
5888-116H1+L1 (antibody, V domains shown, murine antibody) VH: QVQLQQSGAELVRPGASVTLSCKASGYTFTDSEMYWVRLTPVHGLEWIGAIDPETGDTAFNQKFKGKATLTADKSSSTAYMELRSLTSEDSVVYYCTRAFDNDNDDGFAYWGQGTLVTVSA VL: QIVMTQSPAIMSASPGEKVTMTCSASSSVNYMHWYQQKSGTSPKRWIYDTSKLASGVPARFSGSGSGTSYSLTISSMEAEDAATYYCQQWSSNPLTFGAGTKLELK: 0.0288
5887-537H3+L1 (antibody, V domains shown, murine antibody; also called 5887-537H3H+L1) VH: QVTLKESGPGILQPSQTLSLTCSFSGFSLSTSGMGVGWIRQPSGKGLEWLAHIWWDDVKQYNPALKSRLTISKDTSSSQVFLKSASVDTADTATYYCARIGGDYDYFDFWGQGTTLTVSS VL: DIVLTQSPASLAVSLGQRATISCRASESVEYSGTSLMQWYQQKPGQPPKLLIYVASNVESGVPARFSGSGSGTDFSLNIHPVEEDDIAMYFCQQSRKVPWTFGGGTKLEIK: 0.0123
5888-379H1+L2 (antibody, V domains shown, murine antibody) VH: QIQLAQSGPELKKPGETVKISCKASGYTFINYGMNWVKQAPGKDLKWMGWINTYIGEPTYGDNFKGRFAFSLETSASTVYLQINNLKNEDTATYFCAREGDGFAYWGQGTLVTVSA VL: DIVMTQSPPSLSVSVGEKVTMSCKSSQSLLYSGNQNNYLAWYQQKPGQPPKLLIYGASTRESGVPDRFTGSGSGTDFTLTISSVQAEDLAVYYCQNDHSYPYTFGGGTKLEIK: 0.0295

# input Which EC50 value belongs to 5887-41H+L (antibody, V domains shown, murine antibody) VH: DVQLQQSGPGLVKPSQSLSLTCTVTGYSITSDYAWDWIRQFPGNKLEWMGYIRYSGDTYYNPSLKSRISITRDTSKNQFFLQLNSVTTEDTATYYCATTMMDTMDYWGQGTSVTVSS VL: DIVLTQSPASLTVSLGQRATISCRASKSVSTSGNSYMHWYQQKPGQPPKLLIYLASNLESGVPARFSGSGSGTDFTLNIHPVEEEDAATYYCQHSREFPLTFGAGTKLELK ?
# output 0.0266

# input May I ask what EC50 has been recorded for 5888-153H1+L2 (antibody, V domains shown, murine antibody) VH: QVQLQQSGAELVRPGASVTLSCKASGYTFTDYELHWVKQTPVHGLEWIGTIDPETGDTVYNQKFKAKAILTADKSSSTAYMEFRSLTSEDSAVCYCTRAFYNDYDDGFAYWGQGTLVTVSA VL: QIVMTQTPAIMSASPGEKVTMTCSVSSSVSYMHWYQQKSGTSPKRWIYDTSKLASGVPARFSGSGSGTSYSLTINNMEAEDAATYYCQQWNSSPLTFGAGTKLELK ?
# output 0.0209

# input Which EC50 is reported for this binder? 5888-357H+L (antibody, V domains shown, murine antibody) VH: QVQLQQSVTELVRPGASVTLSCKASGYRFTDSEMHWVKQTPVHGLEWIGTIDPETGGTVYNQKFKGKAKLTADRSSSTVSMELRSLTSEDSAVYYCTRAFYNDFDDGFAYWGQGTLVTVSA VL: QIVMTQSPAIMSASPGEKVTLTCSASTSVSYMHWYQQKSGTSPKRWIYDTSKLASGVPARFSGSGSGTSYSLTISSMEAEDAATYYCQQWSSNPLTFGAGTKLELK
# output 0.0113

# input So what's the measured EC50 for this one? 5886-156H+L (antibody, V domains shown, murine antibody) VH: DVQLQQSGPGLVKPSQSLSLTCTVTGYSITSDYAWNWIRQFPGNKLEWMGYIDYSGSTTYNPSLKSRFSITRDTSKNQFFLQLNSVTTEDTATYYCASTVIDSMDYWGQGTSVTVSS VL: DIVLTQSPASLAVSLGQRATISCRASKSVSTSGHSYMHWYQQKPGQPPKLLIYLASNLESGVPARFSGSGSGTDFTLNINPMEEEDAATYYCQHSREFPFTFGSGTKLEIK
# output 0.0161
